MEASUREMENT TARGET: T1, human PD-L1-Fc protein (human, UniProt Q9NZQ7 19-239)
T1 construct: Bought from R&D Systems; also called immobilised PD-L1-Fc; not shown: Fc part of the bought fusion protein, not described
T1 sequence (Q9NZQ7 19-239 limits assumed): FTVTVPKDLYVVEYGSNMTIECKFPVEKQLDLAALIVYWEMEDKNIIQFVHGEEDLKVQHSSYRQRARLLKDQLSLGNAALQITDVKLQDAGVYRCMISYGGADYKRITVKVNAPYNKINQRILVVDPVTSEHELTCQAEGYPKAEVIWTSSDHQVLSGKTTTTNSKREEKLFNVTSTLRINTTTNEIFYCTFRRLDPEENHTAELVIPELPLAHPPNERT
ASSAY INFO: BIAcore off rate, unpurified periplasmic extract Fab on PD-L1
READOUT TYPE: Ratio pH 6 vs 7.4
Keep it simple and answer with nothing but the number.

{"BINDER": "Fab 8A04 (Fab, V domains shown, Purified Fab prepared from IgG with the Pierce kit; also called 8A04 Fab) VH: QVQLVQSGGGVVQPGRSLRLSCAASGFTFSSYGMYWVRQAPGKGLEWVAVISYDGSNKYYADSVKGRFTISRDNSKNTLNLQMNSLRAEDTAVYYCAKGALTHWGVVIGDGMDVWGQGTTVTVSS VL: NFMLTQPHSVSESPGKTVTISCMRTGTGNKGHYTRWYQQRPGSSPTTVIYEDDQRPSGVPDRFSGSIDSSSNSASLTISGLKTEDEADYYCQSFDSTNPWVFGGGTKLTVL", "NUMBER": 9}

Request: # query: Ratio pH 6 vs 7.4 of entry Fab 8G08 (Fab, V domains shown, Purified Fab prepared from IgG with the Pierce kit; also called 8G08 Fab) VH: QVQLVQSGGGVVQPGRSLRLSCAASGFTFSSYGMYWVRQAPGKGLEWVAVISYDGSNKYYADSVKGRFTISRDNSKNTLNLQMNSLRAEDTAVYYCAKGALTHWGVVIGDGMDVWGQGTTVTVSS VL: NFMLTQPHSVSESPGKTVTISCISNDVPASGHYHRWYQQRPGSSPTTVIYEDDQRPSGVPDRFSGSIDSSSNSASLTISGLKTEDEADYYCQSFDSTNPWVFGGGTKLTVL
Response: 27

Request: # query: Ratio pH 6 vs 7.4 of entry Fab 8D06 (Fab, V domains shown, Purified Fab prepared from IgG with the Pierce kit; also called 8D06 Fab) VH: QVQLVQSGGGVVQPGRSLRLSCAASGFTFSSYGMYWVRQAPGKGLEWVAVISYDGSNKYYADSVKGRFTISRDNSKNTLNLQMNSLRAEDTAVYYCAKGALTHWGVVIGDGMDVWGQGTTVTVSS VL: NFMLTQPHSVSESPGKTVTISCVLSPRTHAGHYYRWYQQRPGSSPTTVIYEDDQRPSGVPDRFSGSIDSSSNSASLTISGLKTEDEADYYCQSFDSTNPWVFGGGTKLTVL
Response: 20

Request: # query: Ratio pH 6 vs 7.4 of entry Fab 8B06 (Fab, V domains shown, Purified Fab prepared from IgG with the Pierce kit; also called 8B06 Fab) VH: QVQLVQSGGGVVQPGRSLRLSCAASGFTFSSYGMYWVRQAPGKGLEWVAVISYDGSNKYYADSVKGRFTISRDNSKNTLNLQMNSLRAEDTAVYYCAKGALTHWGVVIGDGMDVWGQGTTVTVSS VL: NFMLTQPHSVSESPGKTVTISCRETELSRRLHYVRWYQQRPGSSPTTVIYEDDQRPSGVPDRFSGSIDSSSNSASLTISGLKTEDEADYYCQSFDSTNPWVFGGGTKLTVL
Response: 13
